Test system: Aedes aegypti
protocol description: Warm Body assay, mosquito landings on treated warm body
Assay type: in vivo
condition set: Aedes aegypti, 0.0071 mg/mL (Table 1); read-out: Percentage of repellence of mosquitoes Aedes aegypti landing on the warm body
measurement name: pest or weed control at 7.1 µg/mL (%)
# output: bare number, implied unit %

>>> print(df.to_string())
                                   compound            tgt  readout_units  number
0     COC(=O)Oc1ccc(C)cc1OC [compound 1141]  Aedes aegypti              %      39
1  CC=Cc1cc(OC)c(O)c(OC)c1 [compound 1124, 2,6-dimethoxy-4-[prop-1-enyl]phenol]  Aedes aegypti              %      40
2  CCCc1cc(OC)c(OC)c(OC)c1 [compound 1975, 1,2,3-trimethoxy-5-propylbenzene]  Aedes aegypti              %      10

Hello, I am looking for reported pest or weed control at 7.1 µg/mL with Aedes aegypti for CC=Cc1cc(OC)c(OC)c(OC)c1 [compound 1123] . Could you help?
10

Hello, I am looking for reported pest or weed control at 7.1 µg/mL with Aedes aegypti for CCCc1cc(OC)c(O)c(OC)c1 [compound 1502, 2,6-dimethoxy-4-propylphenol] . Could you help?
0

Hello, I am looking for reported pest or weed control at 7.1 µg/mL with Aedes aegypti for C=CCc1cc(OC)c(O)c(OC)c1 [compound 1191, 4-allyl-2,6-dimethoxyphenol] . Could you help?
52

Hello, I am looking for reported pest or weed control at 7.1 µg/mL with Aedes aegypti for COc1cc(C=NCCN=Cc2cc(OC)c(OC)c(OC)c2)cc(OC)c1OC [compound 1980] . Could you help?
57

###

System: Aedes aegypti
protocol description: Warm Body assay, mosquito landings on treated warm body
Type: in vivo
condition set: Aedes aegypti, 10 mg/mL (Table 1); read-out: Percentage of repellence of mosquitoes Aedes aegypti landing on the warm body
measurement name: pest or weed control at 10000 µg/mL (%)
# output: bare number, implied unit %

Hello, I am looking for reported pest or weed control at 10000 µg/mL with Aedes aegypti for CCCc1cc(OC)c(O)c(OC)c1 . Could you help?
96

Hello, I am looking for reported pest or weed control at 10000 µg/mL with Aedes aegypti for CCCc1cc(OC)c(OC)c(OC)c1 . Could you help?
96

Hello, I am looking for reported pest or weed control at 10000 µg/mL with Aedes aegypti for COC(=O)Oc1ccc(C)cc1OC . Could you help?
91

Hello, I am looking for reported pest or weed control at 10000 µg/mL with Aedes aegypti for CC=Cc1cc(OC)c(O)c(OC)c1 [compound 1124, 2,6-dimethoxy-4-[prop-1-enyl]phenol] . Could you help?
98

Hello, I am looking for reported pest or weed control at 10000 µg/mL with Aedes aegypti for C=CCc1cc(OC)c(O)c(OC)c1 . Could you help?
100

Hello, I am looking for reported pest or weed control at 10000 µg/mL with Aedes aegypti for CC=Cc1cc(OC)c(OC)c(OC)c1 . Could you help?
98

Hello, I am looking for reported pest or weed control at 10000 µg/mL with Aedes aegypti for COc1cc(C=NCCN=Cc2cc(OC)c(OC)c(OC)c2)cc(OC)c1OC . Could you help?
96

###

Tested on: Aedes aegypti
protocol description: Warm Body assay, mosquito landings on treated warm body
Format: in vivo
condition set: Aedes aegypti, 10 mg/mL (Table 2); read-out: Percentage of repellence of mosquitoes Aedes aegypti landing on the warm body
Measured pest or weed control at 10000 µg/mL of individual entries
# output: bare number, implied unit %

             record_smiles                     measurement_name  readout_units  number
0       COc1ccc(OC)c(OC)c1  pest or weed control at 10000 µg/mL              %      96
1       COc1cc(C)cc(OC)c1O  pest or weed control at 10000 µg/mL              %     100
2  CC=Cc1cc(OC)c(O)c(OC)c1  pest or weed control at 10000 µg/mL              %      96

For the next question, use this molecule.
I am curious: what pest or weed control at 10000 µg/mL value has been reported for COc1cc(C=CC(=O)O)cc(OC)c1OC ?
96
